measurement target: T1, recombinant bovine Aggrecan G1-IGD-G2 (bovine, UniProt P13608 20-684, limits assumed)
T1 construct: also called Bov G1-IGD-G2; Boy G1-IGD-G2
procedure details: periplasmic extract ELISA
The entries below are paired with their reported OD 450 nm.
Give just the numeric value; OD 450 nm need not be written.

// worked examples, OD 450 nm included
binder	OD 450 nm, OD 450 nm
C0101PMP115B08 (VHH, Tested as E. coli periplasmic extract; not shown: FLAG3 and His6 tags (phagemid pAX212)) VHH: KVQLVESGGGLVQPGGSLRLSCAASGFTFSMYAMKWVRQAPGKGLEWVSGINSSGGRTNYAGSVKGRFTISRDNAKNTLYLQMNSLKPEDTAVYYCATDFLGGRNSRGQGTQVTVSS	0.84
C0101PMP604F02 (VHH, Tested as E. coli periplasmic extract; not shown: FLAG3 and His6 tags (phagemid pAX212)) VHH: DVQLVESGGGLVQPGGSLRLSCAASGRTFSSYTMGWFRQAPGKEREFVAAISWSGGRTYYADSVKGRFTISRDNSKNTVYLQMNSLRPEDTAVYYCAAYRRRRASSNRGLWDYWGQGTLVTVSS	0.82

// next entry
Item: C0101PMP604B05 (VHH, Tested as E. coli periplasmic extract; not shown: FLAG3 and His6 tags (phagemid pAX212)) VHH: DVQLVESGGGLVQPGGSLRLSCVASGRTFSIYTMAWFRQAPGKEREFVAAISWSSGRTYYADSVKGRFTISRDNSKNTVYLQMNSLRPEDTAVYYCTAYTGPRSGYDYWGQGTLVTVSS | OD 450 nm: 1.63
